Data origin, for the record: PubChem BioAssay

Test: adipocyte viability effects, profiling panel, cell-based, 3T3-L1 adipocytes, calcein-AM fluorescence, 48 h, basal (AID 1163); note: test concentration not given here
Conditions: 3T3-L1 adipocytes viability, higher = more signal
The label is 1 for z-score below -0.4 and 0 for z-score equal to or exceeding -0.4.

O=C1OC[C@@H](c2ccccc2)n2cc(/C=C/c3ccccc3)cc21: 0

(Q) Consider COC(=O)C(CC#Cc1ccc2c(c1)[C@]1(C(=O)N2)[C@H](C(N)=O)[C@H]2C(=O)O[C@H](c3ccccc3)[C@H](c3ccccc3)N2[C@@H]1c1ccccc1OCCO)C(=O)OC . Does its z-score lie strictly below -0.4?
(A) 1

###

System: Wnt5a (protein binding on small-molecule microarray)
Test: Wnt5a binders on small-molecule microarray, primary screen, biophysical, 635/667 nm fluorescence (AID 1142);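 note: fluorescence read at 667 nm with signal to noise per printed feature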
Conditions: 635 nm fluorescence, higher = more signal
Measured property: composite z-score
Answers are plain numbers.

Observe how each entry below is paired with its result.
C[N+](C)(C)CCCC[C@@H]1NC(=O)[C@H]2C[C@@H](C(=O)O)[C@@H](c3ccc(O)cc3)N2C1=O: 0.0425
COC(=O)C1(CC(C)C)C=C2C(=C(C)C(=O)C2C)CN1 (centres undefined): 0.392
COc1ccc([Si](C)(C)[C@H]2[C@H](CC(=O)N3CCC[C@H]3CO)O[C@@]3(C(=O)N(C)c4ccccc43)[C@@H]2C)cc1: -0.0653
CCCCC(=C=CC[C@H](O)c1cccc(OCCO)c1)C[C@H](O)c1cc(Cl)cc(Cl)c1O: 0.252
O=C1C2C=CC(C(O)C(c3ccccc3)c3ccccc3)N(Nc3ccccc3F)C2C(=O)N1c1ccccc1 (centres undefined): 0.739
COC(=O)Cn1c(C(=O)N(C)C)cc2c1C[C@H]1CN(C(=O)c3ccccc3)[C@@](Cc3ccccc3)(C(=O)OC)[C@@H]21: 0.135
C=CCNC(=O)[C@H]1[C@@H]2C(=O)O[C@@H](c3ccccc3)[C@@H](c3ccccc3)N2[C@@H](c2ccc(O)cc2)[C@]12C(=O)N(C(=O)OCCOC)c1ccc(C#Cc3ccc(OC)cc3)cc12: 0.334
[N-]=[N+]=Nc1ccccc1C[C@]1(C(N)=O)COC(c2ccc(OCCCO)cc2)=N1: 0.131
O=C1O[C@@H](c2ccccc2)[C@@H](c2ccccc2)N2[C@@H](c3ccccc3OCCO)[C@]3(C(=O)Nc4ccc(C#CC5(O)CCCCCC5)cc43)[C@@H](C(=O)N3CCCCCCC3)[C@H]12: 2.35
COc1cccc(C)c1NC(=O)O[C@H]1[C@H](OC(=O)Nc2ccccc2)[C@@H](OC(=O)Nc2ccccc2)[C@@H](OC)O[C@@H]1CO: 0.486

Please state, for each entry, its recorded composite z-score.
1. O=C1NC(=O)C2C1C=CC(C(O)C1CCCCC1)N2Nc1ccccn1 (centres undefined)
2. CCCCCN1CC=CC23O[C@@H]4/C=C\CCCOC(=O)C4[C@H]2C(=O)N(CCCCCO)[C@@H]3C1=O (some centres undefined)
3. CN1C2C=C(c3ccc(CO)cc3)C(C3C(=O)N(C(N)=O)C(=O)C32)C1C1CC1 (centres undefined)
4. C=C1C(=O)C=C2CN(C(=O)c3ccccc3)[C@@](Cc3ccc(F)cc3)(C(=O)OC)[C@@H]12

(A)
1. 0.0408
2. -0.827
3. -0.392
4. 0.272

###

Could you please report measured composite z-score for the items listed next?
Molecular target: Pro-neuregulin-1, membrane-bound isoform (Homo sapiens) (UniProt Q02297)
Sequence (Q02297 whole entry, looked up, canonical isoform): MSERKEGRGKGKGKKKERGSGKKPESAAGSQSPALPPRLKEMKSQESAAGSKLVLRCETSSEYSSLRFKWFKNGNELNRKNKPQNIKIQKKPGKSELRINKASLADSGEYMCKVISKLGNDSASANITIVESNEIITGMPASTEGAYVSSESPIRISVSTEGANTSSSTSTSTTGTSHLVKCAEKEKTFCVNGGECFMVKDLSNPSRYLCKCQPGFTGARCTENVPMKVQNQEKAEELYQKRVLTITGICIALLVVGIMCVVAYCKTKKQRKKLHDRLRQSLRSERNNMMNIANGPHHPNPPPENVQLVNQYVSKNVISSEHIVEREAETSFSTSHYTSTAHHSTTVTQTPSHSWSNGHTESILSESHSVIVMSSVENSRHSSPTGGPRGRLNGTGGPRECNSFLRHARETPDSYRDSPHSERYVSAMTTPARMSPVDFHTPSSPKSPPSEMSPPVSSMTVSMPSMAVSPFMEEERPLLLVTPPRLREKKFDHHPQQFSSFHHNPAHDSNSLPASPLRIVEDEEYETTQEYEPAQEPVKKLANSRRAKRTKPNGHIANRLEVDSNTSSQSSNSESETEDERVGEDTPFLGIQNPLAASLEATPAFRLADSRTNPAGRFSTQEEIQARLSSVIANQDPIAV
Experiment: NRG1 binders on small-molecule microarrays, primary screen, psychiatric disease protein project, biochemical, small-molecule microarray, fluorescence 635/667 (AID 1075);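 note: score combines 667 nm spot fluorescence with signal to noise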
Conditions: NRG1 binding, 635 nm fluorescence, higher = more signal
One number for each entry.

Observe how each entry below is paired with its result.
[N-]=[N+]=Nc1ccccc1C[C@@]1(C(=O)NCC(O)CO)N=C(c2ccc(OCCCO)cc2)O[C@@H]1c1ccccc1N=[N+]=[N-] (some centres undefined): 1.62
O=C1c2ccccc2[C@@]2(Cc3ccccc3N(CC(F)(F)F)C2=O)[C@H](c2ccc(CO)cc2)N1Cc1ccccc1: 0.0876
C=CC[C@]1(C(=O)NCC(O)CO)N=C(c2ccc(OCCCO)cc2)O[C@H]1c1ccccc1CN=[N+]=[N-] (some centres undefined): 0.323

Please state, for each entry, its recorded composite z-score.
1. COC(=O)[C@]1(Cc2ccccc2N=[N+]=[N-])N=C(c2ccc(OCCCO)cc2)O[C@@H]1c1ccccc1CN=[N+]=[N-]
2. COCCOC(=O)N1C(=O)[C@@]2(c3cc(C#CCNC(N)=O)ccc31)[C@H](c1ccc(O)cc1)N1[C@H](c3ccccc3)[C@H](c3ccccc3)OC(=O)[C@H]1[C@@H]2C(=O)N1CCc2cc(OC)c(OC)cc2C1
3. CC(C)c1ccc(NN2C(C(O)c3ccccc3)C=CC3C(=O)N(c4ccccc4)C(=O)C32)cc1 (centres undefined)
4. CC(C)[Si](C#Cc1ccccc1)(O[C@H](c1ccccc1)c1cn(Cc2ccccc2)nn1)C(C)C
5. COCCCNC(=O)[C@]1(Cc2ccccc2CN=[N+]=[N-])N=C(c2ccc(OCCCO)cc2)O[C@@H]1c1ccccc1N=[N+]=[N-]
6. C=CCN1C(=O)[C@]2(O[C@H](CCO)[C@@H]([Si](C)(C)c3ccc(OC)cc3)[C@@H]2C)c2cc(N3C(=O)c4ccccc4Oc4ccccc43)ccc21

(A)
1. 1.06
2. 1.06
3. 0.905
4. 0.8
5. 0.527
6. 0.967

Please state, for each entry, its recorded composite z-score.
1. COC(=O)[C@@]1(Cc2ccc(F)cc2)[C@H]2c3cc(C(=O)N4CCCC4)n(C[C@H](O)CO)c3C[C@H]2CN1C(=O)c1ccccc1
2. Cc1ccc(S[C@]2(C(=O)NCC(C)C)CC(=O)N(C(C)C)[C@@H]2c2ccc(CO)cc2I)cc1
3. O=C(NCCN1CCOCC1)[C@@H]1c2ccccc2C(=O)N(CC23CC4CC(CC(C4)C2)C3)[C@H]1c1ccc(CO)cc1
4. O=C1O[C@@H](c2ccccc2)[C@@H](c2ccccc2)N2[C@@H](c3ccccc3OCCO)[C@]3(C(=O)Nc4ccc(C#CC5(O)CCCCCC5)cc43)[C@@H](C(=O)N3CCCCCCC3)[C@H]12
5. COc1c(C)cc(-c2nc(-c3ccccc3)c3c(c2C)CO[Si]3(C(C)C)C(C)C)cc1C

(A)
1. 2.15
2. 1.18
3. 1.78
4. 2.67
5. -0.0636

###

Could you please report measured composite z-score for the items listed next?
Assay: compound binding in COS7 lysate, probe aLAP1, primary screen, cell lysate, small-molecule microarray (AID 1124);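 note: lysate comes from COS7 cells expressing LAP1 and is applied at 0.3 µg/mL; score merges spot fluorescence near 667 nm with signal-to-noise over triplicate slides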
Conditions: probe aLAP1, fluorescence, higher = more signal

Observe how each entry below is paired with its result.
O=C(CS)NCCCCCCNC(=O)[C@H]1C[C@H]2C(=O)NCC(=O)N2[C@H]1c1cccc(OCCO)c1: 0.122
CN1C(=O)C2C=CC(C(O)COCc3ccccc3)N(Nc3ccc([N+](=O)[O-])cc3[N+](=O)[O-])C2C1=O (stereo not drawn): 0.578
Cc1ccc(S[C@]2(C(=O)NC(C)C)CC(=O)N(Cc3ccccc3)[C@@H]2c2ccc(CO)cc2)cc1: -0.915
CCCC[C@@H](O)C1=C(C)Cn2c(=O)n(-c3ccccc3)c(=O)n2[C@H]1CO: -0.0242
COCCCNC(=O)[C@@]1(Cc2ccccc2I)c2ccccc2C(=O)N(Cc2ccccc2OC)[C@H]1c1ccc(CO)cc1: -0.143

Please state, for each entry, its recorded composite z-score.
1. O=C1O[C@H](c2ccccc2)[C@H](c2ccccc2)N2[C@H]1[C@@H](C(=O)O)[C@]1(C(=O)Nc3ccc(C#CC4(O)CCCCCC4)cc31)[C@H]2c1ccccc1OCCO
2. COC(=O)[C@@]1(Cc2ccccc2)[C@H]2c3cc(C(=O)N(C)C)n(CCF)c3C[C@H]2CN1C(=O)c1ccccc1
3. C=C[C@@H](CO)NS(=O)(=O)c1ccc(Br)cc1

(A)
0.774
1.08
-0.32

###

Experiment: small-molecule microarray binders of probe aCHRDL2, primary screen, biochemical, biotinylated probe, 635/667 nm fluorescence (AID 1100)
Conditions: higher = more signal
Answer f if composite z-score is under -0.04, and t if it is -0.04 or more.

[N-]=[N+]=NCc1ccccc1C[C@@]1(C(N)=O)N=C(c2ccc(OCCCO)cc2)O[C@@H]1c1ccccc1N=[N+]=[N-]: t
COC(=O)[C@]1(Cc2ccccc2N=[N+]=[N-])N=C(c2ccc(OCCCO)cc2)O[C@@H]1c1ccccc1CN=[N+]=[N-]: t
CC1(C)OB(/C=C\CC(OC(=O)c2ccncc2)c2ccccc2)OC1(C)C (centres undefined): t

(Q) Test whether the compound CCOC(=O)C[C@H]1[C@H](OC(=O)c2cc3ccccc3oc2=O)[C@@H](NC(=O)c2ccc(-c3ccccc3)cc2)c2cc(OCCCO)ccc2N1C(=O)Cc1ccc(OC)cc1 records composite z-score of -0.04 or higher.
(A) t

(Q) Test whether the compound CN1C(=O)C2C=CC(C(O)c3cccs3)N(N(c3ccccc3)c3ccccc3)C2C1=O (centres undefined) records composite z-score of -0.04 or higher.
(A) t

(Q) Test whether the compound O=C1O[C@H](c2ccccc2)[C@H](c2ccccc2)N2[C@H]1[C@@H](C(=O)N1CCN(c3ncccn3)CC1)[C@]1(C(=O)Nc3ccc(C#CC4(O)CCCCCC4)cc31)[C@H]2c1ccc(O)cc1 records composite z-score of -0.04 or higher.
(A) f

(Q) Test whether the compound [N-]=[N+]=Nc1ccccc1C[C@]1(C(=O)N2CCCCC2)N=C(c2ccc(OCCCO)cc2)O[C@H]1c1ccccc1 records composite z-score of -0.04 or higher.
(A) t

(Q) Test whether the compound CC(C)N1CC=CC23O[C@@H]4/C=C\CCCOC(=O)C4[C@H]2C(=O)N(C(C)CO)[C@@H]3C1=O (some centres undefined) records composite z-score of -0.04 or higher.
(A) t

(Q) Test whether the compound COc1ccc([Si](C)(C)[C@H]2[C@H](CC(=O)N(CCO)Cc3ccccc3)O[C@@]3(C(=O)N(c4ccccc4)c4ccccc43)[C@@H]2C)cc1 records composite z-score of -0.04 or higher.
(A) f

(Q) Test whether the compound COC(=O)[C@@]1(Cc2ccccc2)[C@H]2c3cc(C(=O)N(C)C)n(Cc4ccc(Cl)c(C(F)(F)F)c4)c3C[C@H]2CN1C(=O)c1ccccc1 records composite z-score of -0.04 or higher.
(A) t

(Q) Test whether the compound CCCC1(C(=O)OC)C=C2C(=C(C(C)C)C(=O)C2C)CN1 (centres undefined) records composite z-score of -0.04 or higher.
(A) t

(Q) Test whether the compound COc1ccc([Si](C)(C)[C@H]2[C@H](CC(=O)N3CCC[C@H]3CO)O[C@@]3(C(=O)N(Cc4cccc(N5CCCCC5=O)c4)c4ccccc43)[C@@H]2C)cc1 records composite z-score of -0.04 or higher.
(A) f

(Q) Test whether the compound COC(=O)[C@@]1(Cc2ccc(F)cc2)[C@H]2c3cc(C(=O)N4CCCC4)n(Cc4ccc(C(F)(F)F)nc4)c3C[C@H]2CN1C(=O)c1ccccc1 records composite z-score of -0.04 or higher.
(A) t

(Q) Test whether the compound CC(C)[Si](C#Cc1ccccc1)(O[C@H](c1ccccc1)c1cn(Cc2ccccc2)nn1)C(C)C records composite z-score of -0.04 or higher.
(A) f
